# System: OVCAR-8 ovarian
# EXPERIMENT: NCI-60 one-dose screen, 48 h (100 = growth as untreated, 0 = no growth, -100 = all killed)
# COND: 10 µM
The panel holds about 83,000 compounds, 20% with a hit somewhere; the sample as a whole holds those more often.
MEASUREMENT KIND: growth (%)

[[record]]
compound = "CCOC(=O)C(=Cc1ccc(Br)cc1)C(=O)OCC"
value_observed = -22.4

[[record]]
compound = "c1ccc([I+]c2ccccc2)cc1"
value_observed = 39.2

[[record]]
compound = "COc1cc(-c2cc(C(=O)N3CCN(C(=O)c4ccccc4NCc4cccs4)CC3)nc3cc(-c4ccccc4)nn23)cc(OC)c1OC"
value_observed = 90

[[record]]
compound = "O=C(NN1C(=O)CSC1c1ccc(Cl)cc1)c1cccnc1 (stereo not drawn)"
value_observed = 99.7

[[record]]
compound = "CCCCN(CCCC)c1cc(C(=O)CCCCCN)c2ccccc2n1"
value_observed = 9.35

[[record]]
compound = "COc1cc(-c2cc(/C=C/C(=O)c3ccc(Cl)c(Cl)c3)[nH]n2)cc(OC)c1OC"
value_observed = 77.8

[[record]]
compound = "O=C(Nc1cccc(-n2cc(-c3ccncc3)c(-c3ccc(O)c(Cl)c3)n2)c1)c1ccc(N2CCOCC2)c(C(F)(F)F)c1"
value_observed = 30.7

[[record]]
compound = "COc1cc(Cc2cc(-c3ccc(Cl)cc3)n[nH]c2=O)ccc1O"
value_observed = 92.6

[[record]]
compound = "Cc1ccc(Nc2cc(C)nc(NCCCNc3ccnc4cc(Cl)ccc34)n2)cc1"
value_observed = -60.7

[[record]]
compound = "N#CC1=C(Nc2ccccc2Cl)SC(c2ccccc2O)NC1=O (stereo not drawn)"
value_observed = 111

[[record]]
compound = "Nc1ccn(C2CC(O)C(CO)O2)c(=O)n1 (stereo not drawn)"
value_observed = 106

[[record]]
compound = "CCCCCCCCCCCCCCCCCC(=O)OCCCCCCC"
value_observed = 102

[[record]]
compound = "O=C1OCC2=C1C(c1cccc(Cl)c1)c1cc3c(cc1N2CCO)OCO3 (stereo not drawn)"
value_observed = 25.1

[[record]]
compound = "O=S(=O)(NCCCNc1nccc(-c2c(-c3ccc(F)cc3)nc3sccn23)n1)c1ccc(F)cc1"
value_observed = 17.7

[[record]]
compound = "O=C(/C=C/c1cc2ccccc2[nH]c1=O)c1ccc2c(c1)OCO2"
value_observed = 96.1

[[record]]
compound = "FC(F)(F)c1ccc(-c2cnc(Cl)nc2N2CCC3(CC2)OCCO3)cc1"
value_observed = 95

[[record]]
compound = "COc1cc(Nc2ncnc(Nc3ccc4c(n3)NC(=O)C(C)(C)O4)n2)cc(OC)c1OC"
value_observed = 24.1

[[record]]
compound = "CC/C(=C(/c1ccc(OCCN(C)C)cc1)c1ccc(OC(=O)CCC(=O)c2c(C)[nH]c(/C=C3\\N=C(c4ccc[nH]4)C=C3OC)c2C)cc1)c1ccccc1"
value_observed = 22.8

[[record]]
compound = "Cc1nc2oc3ccccc3c(=O)c2cc1C(=O)NCc1ccccc1"
value_observed = 90.4

[[record]]
compound = "NC(=O)CC1(c2ccccc2)CCCCC1"
value_observed = 107

[[record]]
compound = "Oc1[nH]c2ccc(Cl)cc2c1/C=c1/ccc2c(c1)N=C(c1cc(F)cc(F)c1)N=2"
value_observed = 77

[[record]]
compound = "CCOC(=O)c1ccc(NC(=O)Nc2ncc(Cl)cc2Cl)cc1"
value_observed = 97.7

[[record]]
compound = "Cc1occc1-c1nnc(SCC(=O)c2ccc(NC(=O)CC(C)C)cc2)o1"
value_observed = 57

[[record]]
compound = "CNc1ncc(-c2ccc(C(F)(F)F)cc2)c(NC2CCCCCC2)n1"
value_observed = 84.2

[[record]]
compound = "CC(=O)c1cc(Cl)ccc1O"
value_observed = 109

[[record]]
compound = "CCN(CC)CCNC(=O)c1ccc(NC(C)=O)cc1"
value_observed = 106

[[record]]
compound = "O=C1ON=[N+](c2ccc(Cc3ccc([N+]4=NOC(=O)C4CN4CCOCC4)cc3)cc2)C1CN1CCOCC1 (stereo not drawn)"
value_observed = 80.9

[[record]]
compound = "CCN(CC)CCCOCCCNc1cc(OC)cc2cccnc12"
value_observed = 92.1

[[record]]
compound = "COc1ccc2c(c1)N(CCO)C1=C(C(=O)OC1)C2c1cc(OC)c(OC)c(OC)c1 (stereo not drawn)"
value_observed = 7.94

[[record]]
compound = "CCN(CC)CCNc1ccc(CO)c2oc3cc(Cl)ccc3c(=O)c12"
value_observed = 59.4

[[record]]
compound = "Cc1cc2c(C)c3cc(C)c(N)cc3nc2cc1N"
value_observed = -6.68

[[record]]
compound = "CCOC(=O)N1C=CC2C=CC1C1C=CC=CC2N1C(=O)OCC (stereo not drawn)"
value_observed = 96.5

[[record]]
compound = "Cc1nc2c(c(=O)[nH]1)OCN(Cc1ccccc1)C2"
value_observed = 99.1

[[record]]
compound = "COc1ccc(-c2nc(-c3nc4ccc(OC)cc4[nH]3)cc3c2[nH]c2ccccc23)cc1"
value_observed = 17.5

[[record]]
compound = "CC(C)(C)c1cc(Br)cc(C(C)(C)C)c1O"
value_observed = 103

[[record]]
compound = "O=S(=O)(NCCCNc1nccc(-c2c(-c3ccc(F)cc3)nc3sccn23)n1)c1ccc2ccccc2c1"
value_observed = 29.7

[[record]]
compound = "CC1(C)Cc2c(sc3ncn4nc(-c5ccc(O)cc5)nc4c23)CO1"
value_observed = 58.5

[[record]]
compound = "C=C(C(=O)c1ccccc1)C(NC(C)(C)C)c1ccccc1 (stereo not drawn)"
value_observed = -32

[[record]]
compound = "CCCCCCNC(=O)Oc1ccc(/C(=C(/CC)Cc2ccccc2)c2ccc(OCCN3CCCCC3)cc2)cc1"
value_observed = 81.6

[[record]]
compound = "CC1(C)OC2=C(CC1Br)C(=O)C(=O)c1ccccc12 (stereo not drawn)"
value_observed = -46.4

[[record]]
compound = "Cc1cc(N(CCCNc2ccnc3cc(Cl)ccc23)Cc2cccs2)nc(Cl)n1"
value_observed = 44.7

[[record]]
compound = "CCN(CC)CCC(=O)Nc1cccc2c1C(=O)c1c(c(O)c3ccccc3c1O)C2=O"
value_observed = 45.3

[[record]]
compound = "COc1ccc2c(c1)O/C(=C\\c1ccc([N+](=O)[O-])o1)C2=O"
value_observed = -8.18


====

# System: HCT-116 colon
# EXPERIMENT: NCI-60 one-dose screen, 48 h (100 = growth as untreated, 0 = no growth, -100 = all killed)
# COND: 10 µM
This is part of a sample that, as a whole, favours compounds with a hit. Of some 83,000 tested, about 20% had one in any assay.
Exam item: assign MET to entries whose growth is below 20% and NOT MET to entries at or above 20%. Note that a value of exactly 20% receives NOT MET.

[[record]]
compound = "CN(C)c1ccc(Cc2ccc(N(C)C)cc2Cl)c(Cl)c1"
group_label = "NOT MET"

[[record]]
compound = "CN(C)c1ccc(-c2cc(-c3cccc(NS(C)(=O)=O)c3)nc(N)c2C#N)cc1"
group_label = "MET"

[[record]]
compound = "C/C(N)=C(\\C#N)C(=O)c1ccccc1"
group_label = "NOT MET"

[[record]]
compound = "COc1ccc(C2CC(c3ccc(N(C)C)cc3)=NN2c2ccc(S(N)(=O)=O)cc2)cc1 (stereo not given)"
group_label = "MET"

[[record]]
compound = "Cc1nc2ccccc2c(N)c1-c1cc(C)c2c(C)nc3ccccc3c2n1"
group_label = "MET"

[[record]]
compound = "Cc1cn(C2CCCCO2)c(=O)nc1NO (stereo not given)"
group_label = "NOT MET"

[[record]]
compound = "C#Cc1ccc(-n2c(/C=C/c3ccc4ccccc4n3)nc3ncccc3c2=O)cc1"
group_label = "MET"

[[record]]
compound = "COc1cc(/C=C\\c2cc(OC)c(OC)c(OC)c2)cc(NS(=O)(=O)c2ccc(Cl)cc2)c1OC"
group_label = "MET"

[[record]]
compound = "COc1cc(NC(=O)CCSc2nc3ccc(Cl)cc3c(=O)n2Cc2ccccc2)cc(OC)c1OC"
group_label = "NOT MET"

[[record]]
compound = "Fc1ccc(-c2nnc(-c3c(-c4ccc(F)cc4)nc4ccccn34)o2)cc1"
group_label = "NOT MET"


====

# Tested on: HOP-62 NSCLC
# EXPERIMENT: NCI-60 one-dose screen, 48 h
# COND: 10 µM
About 83,000 compounds went through this panel and 20% of them were active in at least one assay; those are over-represented in the sample as a whole. The source made the active and inactive calls. How the source made its calls: active means growth percent below 10; inactive means the rest.
Labels: active, inactive

[[record]]
molecule = "COc1ccc(Nc2ncnc3c2c(SC)nn3-c2ccccc2)cc1"
target_of_assay = "HOP-62 NSCLC"
group_label = "inactive"

[[record]]
molecule = "COC(=O)c1ccc(=O)oc1"
target_of_assay = "HOP-62 NSCLC"
group_label = "inactive"

[[record]]
molecule = "O=C1ON=[N+](c2ccc(Cc3ccc([N+]4=NOC(=O)C4CN4CCOCC4)cc3)cc2)C1CN1CCOCC1 (stereo unspecified)"
target_of_assay = "HOP-62 NSCLC"
group_label = "inactive"

[[record]]
molecule = "O=C(Nc1cccc(-n2cc(-c3ccncc3)c(-c3cc(O)cc(Cl)c3)n2)c1)Nc1ccc(Cl)c(C(F)(F)F)c1"
target_of_assay = "HOP-62 NSCLC"
group_label = "active"

[[record]]
molecule = "Cc1ccc(C(=O)N2C/C(=C/c3ccc(F)cc3)C(=O)/C(=C/c3ccc(F)cc3)C2)cc1"
target_of_assay = "HOP-62 NSCLC"
group_label = "inactive"

[[record]]
molecule = "CN1CC[C@@H](c2c(O)cc(O)c3c(=O)cc(-c4ccccc4Cl)oc23)[C@@H](O)C1"
target_of_assay = "HOP-62 NSCLC"
group_label = "inactive"

[[record]]
molecule = "COc1cccc(NC(=O)c2sc3nc4c(cc3c2N)C(O)CCC4)c1 (stereo unspecified)"
target_of_assay = "HOP-62 NSCLC"
group_label = "inactive"

[[record]]
molecule = "CCN(CC)CCSCCCNc1c2ccc(Cl)cc2nc2ccc(OC)cc12"
target_of_assay = "HOP-62 NSCLC"
group_label = "active"

[[record]]
molecule = "COc1ccc2c(c1)O/C(=C\\c1ncc([N+](=O)[O-])n1C)C2=O"
target_of_assay = "HOP-62 NSCLC"
group_label = "active"

[[record]]
molecule = "O=C(Nc1ccc(CN2CCc3nc4cc(O)c(O)cc4cc32)cc1)c1ccc(Cl)c(Cl)c1"
target_of_assay = "HOP-62 NSCLC"
group_label = "inactive"

[[record]]
molecule = "COc1ccc(-c2cc(-c3ccc(N(C)C)cc3)c(C#N)c(N3CCCC3)n2)cc1"
target_of_assay = "HOP-62 NSCLC"
group_label = "inactive"

[[record]]
molecule = "COc1cc(-c2nc(Nc3nc4ccccc4s3)[nH]c(=O)c2C#N)cc(OC)c1O"
target_of_assay = "HOP-62 NSCLC"
group_label = "inactive"

[[record]]
molecule = "O=C(O)CC(Cl)C(Cl)CC(=O)O (stereo unspecified)"
target_of_assay = "HOP-62 NSCLC"
group_label = "inactive"

[[record]]
molecule = "O=C(CC(NC(=O)OCc1ccccc1)C(=O)OCc1ccccc1)OCc1ccccc1 (stereo unspecified)"
target_of_assay = "HOP-62 NSCLC"
group_label = "inactive"

[[record]]
molecule = "CCCCOc1ccc(NC(=O)Nc2nnc(C)s2)cc1"
target_of_assay = "HOP-62 NSCLC"
group_label = "inactive"

[[record]]
molecule = "O=C1/C(=C/c2ccc([N+](=O)[O-])o2)Oc2ccccc21"
target_of_assay = "HOP-62 NSCLC"
group_label = "inactive"

[[record]]
molecule = "COc1ccc(-c2nc3ncccn3c2-c2nnc(-c3ccc(F)cc3)o2)cc1"
target_of_assay = "HOP-62 NSCLC"
group_label = "inactive"

[[record]]
molecule = "COc1ccc(-c2ccc(-c3ccc(C(=N)N)cn3)o2)cc1"
target_of_assay = "HOP-62 NSCLC"
group_label = "inactive"

[[record]]
molecule = "Cc1ccc(C)c(C(O)(c2cc(C)ccc2C)C2(O)CCCCC2)c1"
target_of_assay = "HOP-62 NSCLC"
group_label = "inactive"

[[record]]
molecule = "CN(C)CCNC(=O)c1cccn2c(=O)c3cc4ccccc4cc3nc12"
target_of_assay = "HOP-62 NSCLC"
group_label = "active"

[[record]]
molecule = "Fc1ccc(-c2nnc(-c3c(-c4ccc(F)cc4)nc4ccccn34)o2)cc1"
target_of_assay = "HOP-62 NSCLC"
group_label = "inactive"


The measurements presented in this section are drawn from PubChem BioAssay (NCI).
